# SYSTEM_NAME: T1, rat Nectin-4 (rat, UniProt Q8R007 31-508 (mouse entry))
# T1 construct: Transiently expressed on 293T cells
# T1 chain: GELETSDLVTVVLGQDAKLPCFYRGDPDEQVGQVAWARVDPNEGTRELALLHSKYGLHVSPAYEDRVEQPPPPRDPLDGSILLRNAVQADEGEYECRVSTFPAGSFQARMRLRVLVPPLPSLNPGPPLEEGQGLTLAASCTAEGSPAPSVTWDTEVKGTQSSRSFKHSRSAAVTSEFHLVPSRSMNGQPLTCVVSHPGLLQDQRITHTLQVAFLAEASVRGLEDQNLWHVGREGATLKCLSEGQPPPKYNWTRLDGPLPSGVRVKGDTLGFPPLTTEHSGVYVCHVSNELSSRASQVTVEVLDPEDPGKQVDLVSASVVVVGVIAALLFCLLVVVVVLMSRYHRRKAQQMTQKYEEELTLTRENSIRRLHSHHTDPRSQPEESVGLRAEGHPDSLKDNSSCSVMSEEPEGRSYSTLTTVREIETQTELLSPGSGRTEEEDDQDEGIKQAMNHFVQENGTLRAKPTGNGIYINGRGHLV
# ASSAY_PROCEDURE: flow cytometry, transfected 293T cells; +++ EC50 less than 5 nM
pEC50: −log10 of the molar value.
REPORTED_METRIC: pEC50

BINDER	OBSERVED_MEASUREMENT
N4_mAb 5 (antibody, human IgG1, V domains shown, Tested as chimera (human IgG1/kappa constants); not shown: human IgG1 constant region (Uniprot P01857); human Kappa light chain constant region (UniProt P01834)) VH: EVQLQQSGPDLVKPGASVKISCKASGYSFTGHYMHWVKQSHGKSLEWIGRVNPNNGGSSYNQKFKDKAILTVDKSSTTAYMELRSLTSEDSAVYYCARDPLGGSYGFAYWGQGTLVTVSA VL: DIVLTQSPASLAVSLGQRATISCRASQSVTTSSYSYMHWYQQKPGQPPKLLIKYASNLESGVPARFSGSGSGTDFTLNIHPVEEEDTATYYCQHSWEIPYTFGGGTKLEMK	> 8.30
N4_mAb 8 (antibody, human IgG1, V domains shown, Tested as chimera (murine variable regions, human IgG1/kappa constants); not shown: human IgG1 constant region (Uniprot P01857); human Kappa light chain constant region (UniProt P01834)) VH: QVQLQQSGPVLVKPGASVRISCKASGYTFTSYYIHWVKQRPGQGLEWIGWIYPGNVNTKYNENFRDKATLTADKSSSTSYMQLSSLTSEDSAVYFCARGIYYFDYWGQGTTLTVSS VL: IIVMTQTPKFLLVSAGDRVTITCKASQSVNNDVAWYQEKPGQSPKLLIYYASNRDTGVPDRFTGSGYGTDFTFTISTVQAEDLAVYFCHQDYSSPFTFGSGTKLEIK	> 8.30
N4_mAb 6 (antibody, human IgG1, V domains shown, Tested as chimera (murine variable regions, human IgG1/kappa constants); not shown: human IgG1 constant region (Uniprot P01857); human Kappa light chain constant region (UniProt P01834)) VH: QVQLQQSGPELVKPGASVRISCKASGYTFTTYYIHWVKQRPGQGLEWIGWIYPGNVNTKYTENFKDKATLTADKSSSTAYMQLSSLTSEDSAVYFCARGLYYFDFWGQGTTLTVSS VL: SIVMTQTPKFLLVSAGDRVTITCKASQSVNNDVAWYQQKPGQSPKLLIYYASNRDTGVPDRFTGSGFGTDFTFTISSVQAEDLAVYFCQQDYSSPYTFGGGTKLEIK	> 8.30
N4_mAb 7 (antibody, human IgG1, V domains shown, Tested as chimera (murine variable regions, human IgG1/kappa constants); not shown: human IgG1 constant region (Uniprot P01857); human Kappa light chain constant region (UniProt P01834)) VH: QVQLQQSGPELVKPGASVKMSCKASGYTFTTYYIHWVKQRPGQGLEWIGWIYPGNAGIKSNEKFKGKTTLTADKSSSTAYMLLSSLTSEDSAIYFCARGVYFFDYWGQGTTLTVSS VL: SIVMTQTPKFLLVSAGDRVTITCKASQSVNNDVSWFQQKPGQSPKLLIYYASNRYTGVPDRFSGSGYGTDFTFTITTVQAEDLAVYFCQQDYSSPYTFGGGTKLEIK	> 8.30
